Biological target: Atypical kinase COQ8B, mitochondrial (Homo sapiens, UniProt Q96D53)
Sequence (Q96D53 whole entry): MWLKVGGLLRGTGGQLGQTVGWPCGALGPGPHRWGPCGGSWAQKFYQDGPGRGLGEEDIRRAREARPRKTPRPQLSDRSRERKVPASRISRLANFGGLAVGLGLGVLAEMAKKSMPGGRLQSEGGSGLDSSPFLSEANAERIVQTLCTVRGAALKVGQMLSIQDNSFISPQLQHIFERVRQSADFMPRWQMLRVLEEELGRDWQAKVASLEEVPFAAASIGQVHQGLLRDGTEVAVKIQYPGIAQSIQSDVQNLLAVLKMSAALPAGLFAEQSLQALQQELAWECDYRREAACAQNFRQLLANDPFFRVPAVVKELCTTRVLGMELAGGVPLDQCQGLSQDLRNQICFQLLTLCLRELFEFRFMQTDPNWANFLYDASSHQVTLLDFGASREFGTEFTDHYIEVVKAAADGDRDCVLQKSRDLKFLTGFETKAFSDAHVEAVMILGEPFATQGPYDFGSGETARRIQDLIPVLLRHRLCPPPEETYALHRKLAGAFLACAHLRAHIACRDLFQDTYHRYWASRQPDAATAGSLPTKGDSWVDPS
property_label: pKd
Please keep in mind that pKd is minus log10 of the molar concentration; only the number is needed.

Q: Form entry - test system: Atypical kinase COQ8B, mitochondrial (Homo sapiens, UniProt Q96D53); read-out: pKd; compound: Cc1ccc(O)cc1Nc1ccnc(Nc2cccc(C(N)=O)c2)n1
Ans: 6.89

----------
property_label: pKd
Notebook: values listed as pKd are -log10 of the concentration (mol/L).

Q: API: value(readout=pKd, system=Tyrosine-protein kinase receptor UFO (Homo sapiens)) for record N#Cc1ccc(-c2cnc3[nH]cc(NC(=O)c4cccnc4)c3c2)cc1
Ans: 6.22

These entries and their values trace back to ChEMBL document CHEMBL1151712.
